- System: IGROV-1
- assay-explanation: NCI tumour cell line growth inhibition, 48 h
The source made the active and inactive calls. No stated cut-off is given here; in the data, active = GI50 up to about 1.1 µM and inactive = higher.
measurement-name: GI50

// below: answered molecules
molecule | GI50
COc1ccc(/C=C2\CCS(=O)(=O)c3ccccc3C2=O)cc1 | 18.2 µM (inactive)
C[C@@H]1C[C@@H](O)[C@@]2(O)C13CC(=O)OC(C3)[C@@H](C)[C@@]2(C)CO (stereo partly specified) | > 100 µM (inactive)
CN1Cc2c(nc(-c3ccc(Br)cc3)c[n+]2[O-])N(C)C1 | > 100 µM (inactive)
S=C(Nc1ccc(Cl)cc1)SC1CCCCC1 | 21.2 µM (inactive)
Nc1ncnc2c1ncn2CCCNO | > 100 µM (inactive)

What does the data say about its GI50? Entry: "Cc1ccc(C(=O)Oc2ccc(/C=C3\CCC/C(=C\c4ccc(OC(=O)c5ccc(C)cc5)cc4)C3=O)cc2)cc1"
> 100 µM (inactive)

---

- Test system: SF-295
- assay-explanation: NCI tumour cell line growth inhibition, 48 h
The source made the active and inactive calls. No stated cut-off is given here; in the data, active = GI50 up to about 1.1 µM and inactive = higher. Where a SMILES comes first, the peptide text is derived from it. [ ]: non-standard residue; d: D form. The star is where a group is joined. Phe(4-NO2) = N[CH](Cc1ccc([N+](=O)[O-])cc1)C(=O)O; Boc = CC(C)(C)OC(=O)*; OBn = c1ccc(CO*)cc1
A collection of compounds and their measured GI50

// below: answered compounds
compound | result
CC/C(=N/O)c1ccc(Br)s1 | > 100 µM (inactive)
COC(=O)CCC(NC(=O)OC(C)(C)C)C(=O)NC(Cc1ccc([N+](=O)[O-])cc1)C(=O)NCC(=O)OCc1ccccc1 (stereo not given) (Boc-Glu(OMe)-[Phe(4-NO2)]-Gly-OBn; configuration not given here) | > 48.5 µM (inactive)
CC1(C)CC(=O)C(=[N+]=[N-])C(=O)C1 | > 100 µM (inactive)
N#Cc1ccc(OCCSCCCCCCCCCCSCCOc2ccc(C#N)cc2)cc1 | 22.6 µM (inactive)

What does the data say about its GI50? Entry: CO[C@]12CC(=O)C3(C(C[C@H]4CC5CC=C6C[C@@H](OC(C)=O)CC[C@]6(OC(C)=O)C5C[C@@]43C)C1)C1C[C@H]3[C@@H]4CC=C5C[C@@H](OC(C)=O)CC[C@]5(OC(C)=O)[C@H]4CC[C@]3(C)C12 (stereo not given in full)
13.9 µM (inactive)

---

A collection of compounds and their measured GI50
- Tested on: U-251
- assay-explanation: NCI tumour cell line growth inhibition, 48 h
The source made the active and inactive calls. Cut-off read from the data, not from the text of the source: active = GI50 up to about 1.1 µM and inactive = higher.

// below: answered compounds
compound | result
CC12CCC[C@@](C)(C(=O)OC3OC(CO)C(O)C(O)C3O)[C@H]1CCC13CC4CC(OC4(CO)[C@H]1O)[C@@H]23 (some centres undefined) | > 100 µM (inactive)
c1ccc(/C(=N/Nc2ccccn2)c2ncccn2)cc1 | 2.07 µM (inactive)
CC1CCc2sc3nc(S)n(-c4ccccc4)c(=O)c3c2C1 (centres undefined) | 49.2 µM (inactive)
C=C1[C@@H](OC(C)=O)/C=C/C2C3C(=O)[C@@](C)(OC(C)=O)[C@H]([C@H](OC(C)=O)[C@]4(O)[C@@H](C)C(=O)O[C@H]4[C@H]1Cl)[C@@]23C (some centres undefined) | > 100 µM (inactive)
O=C(CC(=O)N1N=C(c2ccccc2)C(/N=N/c2ccc(Cl)cc2)C1=O)Nc1ccccc1Cl (centres undefined) | 24.5 µM (inactive)

What does the data say about its GI50? Entry: O=C(O)c1ccc(NC(=O)C2C(=O)C(=O)N(c3ccc(C(=O)O)cc3)C2=O)cc1 (centres undefined)
> 100 µM (inactive)

Now consider "C=CCc1c(O)c2ccccc2[nH]c1=O" .
> 100 µM (inactive)

Now consider C[C@]12CCC(O)CC1=CC[C@@H]1[C@@H]2CC[C@]2(C)C(=O)[C@H](n3ccnc3)C[C@@H]12 (some centres undefined) .
61.9 µM (inactive)

Now consider "Cn1c(=O)nc2n(-c3cccc(F)c3)c3ccccc3nc-2c1=O" .
19.3 µM (inactive)
